Provide the reported Screen- Human/No Protein of each item.
Tested on: full length human vWF
procedureText: 3-point dot blot screen, full length human vWF
Format: binding
condition: 20 nM full length human vWF, ratio of fraction of aptamer bound with target protein to fraction bound without protein

Sample AMX236.A11: DNA SELEX 2 aptamer clone (nucleic acid, DNA, backbone not given here, DNA SELEX 2 aptamer clone) CTACCTACGATCTGACTAGCTTGGTAGCGACTCTGTGGAGCTGCGGTCTGGCCGACGTCAGCTTACTCTCATGTAGTTCC ; Screen- Human/No Protein observed: 2.02

Documented Screen- Human/No Protein of AMX236.C12: DNA SELEX 2 aptamer clone (nucleic acid, DNA, backbone not given here, DNA SELEX 2 aptamer clone) CTACCTACGATCTGACTAGCTTGGTAGCGACTCCGTGGAGCTGCGGTTTGGTCGACGTCAGCTTACTCTCATGTAGTTCC : 1.99

Attribution: patent US7998940B2
